Experimental System: human ALK2 R206H (Homo sapiens, UniProt Q04771, R206H)
Construct: expressed in transfected cells; host or cells: HEK293 (ATCC CRL1573), lentivirus transduction, blasticidin selection
Assay Text: Cell-based ALK2-R206H cell activity assay (Smad1-Ser463/Ser465 phosphorylation by AlphaLISA in HEK293-ALK2-R206H cells)
Condition Info: read-out: Cell Line (Cell Assay IC50)
pIC50: −log10 of the molar value.
Assay Readout: pIC50

{"Compound": "CCOC(=O)N1CCN(c2ccnn3cc(-c4ccc([C@H]5CCN(CC)C5)cc4)cc23)CC1", "Value Measured": "> 7.00"}
{"Compound": "CCOC(=O)N1CCN(c2ccnn3cc(-c4ccc(C5CNCCO5)cc4)cc23)CC1 (centres unmarked)", "Value Measured": "6.30 to 7.00"}
{"Compound": "CO[C@]1(c2ccc(-c3cc4c(N5CCN(C(=O)NC(C)C)CC5)ccnn4c3)nc2)CCCN(C(C)C)C1", "Value Measured": "> 7.00"}
{"Compound": "CC(C)N1CCC[C@@H](c2ccc(-c3cc4c(N5CCN(C(=O)NCCC#N)CC5)ccnn4c3)cc2)C1", "Value Measured": "6.30 to 7.00"}
{"Compound": "CCOC1(c2ccc(-c3cc4c(N5CCN(C(=O)OC6COC6C)CC5)ccnn4c3)nc2)CCN(C(C)C)CC1 (centres unmarked)", "Value Measured": "> 7.00"}
{"Compound": "CCOC1(c2ccc(-c3cc4c(N5CCN(C(=O)OC6(C)COC6)CC5)ccnn4c3)nc2)CCN(C(C)C)CC1", "Value Measured": "> 7.00"}
{"Compound": "COC1(c2ccc(-c3cc4c(N5CCN(C(=O)C6CC6)CC5)ccnn4c3)nc2)CCN(C2COC2)CC1", "Value Measured": "> 7.00"}
{"Compound": "COC1(c2ccc(-c3cc4c(N5CCN(C(=O)OC6COC6)CC5)ccnn4c3)nc2)CCN([C@H](C)COC(F)F)CC1", "Value Measured": "> 7.00"}
{"Compound": "CO[C@@]1(c2ccc(-c3cc4c(N5CCN(C(=O)C6CC6)CC5)ccnn4c3)cc2F)CCCN(C(C)C)C1", "Value Measured": "> 7.00"}
{"Compound": "CCN1CC[C@@H](c2ccc(-c3cc4c(N5CCN(C(=O)C6CC6)CC5)ccnn4c3)cc2)C(F)C1 (some centres unmarked)", "Value Measured": "6.30 to 7.00"}
{"Compound": "CCOC1(c2ccc(-c3cc4c(N5CCN(C(=O)NC(C)C)CC5)ccnn4c3)nc2)CCN(C(C)C)CC1", "Value Measured": "> 7.00"}
{"Compound": "[2H]C([2H])([2H])C([2H])([2H])N1CCN(c2ccc(-c3cc4c(N5CCN(C(=O)NCC)CC5)ccnn4c3)cc2)CC1", "Value Measured": "> 7.00"}
{"Compound": "CC(C)N1CCC[C@H](c2ccc(-c3cc4c(N5CCN(C(=O)OC6COC6)CC5)ccnn4c3)cc2F)C1", "Value Measured": "> 7.00"}
{"Compound": "CC(C)N1CCC(c2ccc(-c3cc4c(N5CCN(C(=O)OC(C)(C)C)CC5)ccnn4c3)cc2)CC1", "Value Measured": "6.30 to 7.00"}

====

Experimental System: human ALK2 R206H (Homo sapiens, UniProt Q04771, R206H)
Construct: expressed in transfected cells; host or cells: HEK293 (ATCC CRL1573), lentivirus transduction, blasticidin selection
Assay Text: Cell-based ALK2-R206H cell activity assay (Smad1-Ser463/Ser465 phosphorylation by AlphaLISA in HEK293-ALK2-R206H cells)
Condition Info: read-out: Cell Line (Cell Assay IC50)
pIC50: −log10 of the molar value.

{"Molecule": "CCNC(=O)N1CCN(c2ccnn3cc(-c4ccc(C5CCN(C(C)C)CC5)cc4)cc23)CC1 [Compound 275]", "pIC50": "> 7.00"}
{"Molecule": "CC(C)N1CC2(CN(c3ccc(-c4cc5c(N6CCN(C(=O)[C@H]7CC[C@H](C#N)CC7)CC6)ccnn5c4)cc3)C2)C1 [Compound 442]", "pIC50": "> 7.00"}
{"Molecule": "CCN1CCN(c2ccc(-c3cc4c(N5CCN(C(=O)C6CC6)CC5)ccnn4c3)cn2)CC1 [Compound 221]", "pIC50": "6.30 to 7.00"}
{"Molecule": "CCOC(=O)N1CCN(c2ccnn3cc(-c4ccc([C@@]5(OCC)CCCNC5)cc4)cc23)CC1 [Compound 782]", "pIC50": "> 7.00"}
{"Molecule": "CCOC1(c2ccc(-c3cc4c(N5CCN(C(=O)OC6COC6)CC5)ccnn4c3)nc2)CCN(CC(C)F)CC1 (stereo not shown) [Compound 880]", "pIC50": "> 7.00"}
{"Molecule": "CCN1CCN(c2ccc(-c3cc4c(N5CCN(C(=O)C6CC(C)(O)C6)CC5)ccnn4c3)cc2)CC1 (stereo not shown) [Compound 391]", "pIC50": "> 7.00"}
{"Molecule": "CCN1CCN(c2ccc(-c3cc4c(N5CCN(C(=O)N6CCCC6)CC5)ccnn4c3)cc2)CC1 [Compound 327]", "pIC50": "6.30 to 7.00"}

====

Measured IC50, listed per entry.
Experimental System: human ALK2 R206H (Homo sapiens, UniProt Q04771, R206H)
Construct: expressed in transfected cells; host or cells: HEK293 (ATCC CRL1573), lentivirus transduction, blasticidin selection
Assay Text: Cell-based ALK2-R206H cell activity assay (Smad1-Ser463/Ser465 phosphorylation by AlphaLISA in HEK293-ALK2-R206H cells)
Condition Info: read-out: Cell Line (Cell Assay IC50)

{"Molecule": "COC1(c2ccc(-c3cc4c(N5CCN(C(=O)OC6COC6)CC5)ccnn4c3)nc2)CCN(C(C)CF)CC1 (stereo not shown)", "IC50": "< 0.1 µM"}
{"Molecule": "CCCNC(=O)N1CCN(c2ccnn3cc(-c4ccc([C@H]5CCN(C(C)C)C5)cc4)cc23)CC1", "IC50": "< 0.1 µM"}
{"Molecule": "CC(C)NC(=O)N1CCN(c2ccnn3cc(-c4ccc([C@H]5CCN(C(C)C)C5)cc4)cc23)CC1", "IC50": "< 0.1 µM"}
{"Molecule": "O=C(C1CC1)N1CCN(c2ccnn3cc(-c4ccc(N5CCNCC5)cc4)cc23)CC1", "IC50": "< 0.1 µM"}
{"Molecule": "CC(C)N1CCN(c2ccc(-c3cc4c(N5CCN(C(=O)C6CC6)[C@H](C)C5)ccnn4c3)cc2)CC1", "IC50": "0.1 to 0.5 µM"}
{"Molecule": "O=C(C1CC1)N1CCN(c2ccnn3cc(-c4ccc(N5CCN6CCOCC6C5)cc4)cc23)CC1 (stereo not shown)", "IC50": "0.1 to 0.5 µM"}
{"Molecule": "CC(C)N1CC[C@H](c2ccc(-c3cc4c(N5CCN(C(=O)N6CC(C#N)C6)CC5)ccnn4c3)cc2)C1", "IC50": "< 0.1 µM"}

====

Form field: IC50 (one value per entry).
Experimental System: ALK2 R206H (GST-tagged mutant ALK2) (Homo sapiens, UniProt Q04771, R206H)
Construct: purchased Carna Bioscience or ThermoFisher 09-148 or PV6232
Sequence (Q04771 21-509 R206H): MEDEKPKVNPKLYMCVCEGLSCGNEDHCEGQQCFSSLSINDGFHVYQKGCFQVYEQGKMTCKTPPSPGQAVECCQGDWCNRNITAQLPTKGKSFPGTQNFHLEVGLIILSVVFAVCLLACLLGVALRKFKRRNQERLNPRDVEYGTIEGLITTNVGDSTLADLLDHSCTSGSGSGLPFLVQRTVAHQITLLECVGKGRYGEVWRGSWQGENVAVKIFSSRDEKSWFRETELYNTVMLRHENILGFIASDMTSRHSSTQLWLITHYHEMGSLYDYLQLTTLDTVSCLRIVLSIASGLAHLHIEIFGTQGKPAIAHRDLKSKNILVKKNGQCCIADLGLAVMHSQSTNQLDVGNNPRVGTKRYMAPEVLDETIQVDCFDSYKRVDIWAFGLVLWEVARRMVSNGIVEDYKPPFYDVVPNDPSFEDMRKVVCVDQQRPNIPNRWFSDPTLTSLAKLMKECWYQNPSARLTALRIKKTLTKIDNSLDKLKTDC
Assay Text: ALK binding assay (LANTHASCREEN TR-FRET competitive binding, displacement of Kinase Tracer 178)
Condition Info: ALK2 R206H, LANTHASCREEN TR-FRET competitive binding; read-out: Binding Assay (IC50)

{"Compound": "CCN1CCC(c2ccc(-c3cc4c(N5CCN(C(=O)C6(C(C)=O)CC6)CC5)ccnn4c3)cc2)C1 (stereo not shown) [Compound 311]", "Experimental System": "ALK2 R206H (GST-tagged mutant ALK2) (Homo sapiens, UniProt Q04771, R206H)", "IC50": "> 50 nM"}
{"Compound": "O=C(C1CC1)N1CCN(c2ccnn3cc(-c4ccc(OC5CNC5)cc4)cc23)CC1 [Compound 115]", "Experimental System": "ALK2 R206H (GST-tagged mutant ALK2) (Homo sapiens, UniProt Q04771, R206H)", "IC50": "< 10 nM"}
{"Compound": "COC1(c2ccc(-c3cc4c(N5CCN(C(=O)[C@H]6C[C@@H]6C#N)CC5)ccnn4c3)cc2)CCN(C(C)C)CC1 [Compound 705]", "Experimental System": "ALK2 R206H (GST-tagged mutant ALK2) (Homo sapiens, UniProt Q04771, R206H)", "IC50": "< 10 nM"}
{"Compound": "CCO[C@@]1(c2ccc(-c3cc4c(N5CCN(C(=O)NC(C)C)CC5)ccnn4c3)cc2)CCN(C(C)C)C1 [Compound 677]", "Experimental System": "ALK2 R206H (GST-tagged mutant ALK2) (Homo sapiens, UniProt Q04771, R206H)", "IC50": "< 10 nM"}
